Tested on: Panel (Carcinoma cell lines)
Test: Cytotoxic activity against human cancer cell lines was determined
Type: functional
reported metric: Log TCI
Numbers only.

{"molecule": "COc1ccc(/C=C2\\CCC(CCN(C)C)(C3=CCCC3)C2=O)cc1Br.Cl (stereo not drawn)", "reported metric": "Log TCI", "quantitative readout": -4.89}

Field: Log TCI. Fill in for each record below.
1. CN(C)CCC1(C2=CCCC2)CC/C(=C\c2ccc(Cl)cc2)C1=O.Cl (stereo not drawn)
2. CN(C)CCC1(C2=CCCC2)CC/C(=C\c2ccccc2)C1=O.Cl (stereo not drawn)
3. COc1ccccc1/C=C1\CCC(CCN(C)C)(C2=CCCC2)C1=O.Cl (stereo not drawn)
4. CN(C)CCC1(C2=CCCC2)CC/C(=C\c2ccccc2Cl)C1=O.Cl (stereo not drawn)
5. COc1ccc(/C=C2\CCC(CCN(C)C)(C3=CCCC3)C2=O)cc1.Cl (stereo not drawn)
6. CN(C)CCC1(C2=CCCC2)CC/C(=C\c2ccc3c(c2)OCO3)C1=O.Cl (stereo not drawn)
7. COc1cccc(/C=C2\CCC(CCN(C)C)(C3=CCCC3)C2=O)c1.Cl (stereo not drawn)

A)
-4.72
-4.49
-4.43
-4.56
-4.42
-4.52
-4.52
